- System: Staphylococcus aureus
- ASSAY NAME: Bactericidal activity against methicillin-resistant Staphylococcus aureus 97-115 preincubated for 3 mins before addition of growth medium measured after 40 to 48 hrs
- Assay type: functional
MBC listing for selected compounds.
Report as a plain number; the unit µg/mL is understood.

Known MBC results, listed for orientation:
[[record]]
smiles_repr = "CC(=O)O.CCCCCCCNC1=NC(C)(C)NC(NCCCCCCC)=N1"
quantity_kind = "MBC"
experimental_value = 25

[[record]]
smiles_repr = "CC(=O)O.CCCCCCCCCNC1=NC(C)(C)NC(NCCc2ccccc2)=N1"
quantity_kind = "MBC"
experimental_value = 12.5

[[record]]
smiles_repr = "CC(=O)O.CCCCCCCCCCNC1=NC(C)(C)NC(NCc2ccccc2)=N1"
quantity_kind = "MBC"
experimental_value = 6.3

[[record]]
smiles_repr = "CC(=O)O.CCCCCCCCCCCCNC1=NC(C)(C)NC(NCC)=N1"
quantity_kind = "MBC"
experimental_value = 12.5


Asked: What value of MBC has been reported for the following compound? CCCCCCCCCCNC1=NC(C)(C)NC(NCCc2ccc(OC)cc2)=N1.Cl
Given back: 6.3
